# assayed target: MAGI2_3, Q86UL8
# Sequence (Q86UL8 600-682): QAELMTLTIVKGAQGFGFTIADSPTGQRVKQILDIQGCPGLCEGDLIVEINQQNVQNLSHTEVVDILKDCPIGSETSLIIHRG
# protocol details: holdup assay
# Set-up: key: below the threshold = too weak to quantify, mostly under pKd 3.1 to 4
# assay context: plain residues with an end cap or a label only (N-terminal biotin on a linker: ttds)
Assign pKd to each entry below.
One number for each entry.

>  <binder>
QRQARSETLV [HPV59-E6, Q81964]

>  <assay endpoint>
pKd

>  <assay result>
4.73

$$$$
>  <binder>
DKDPHSETAL [TMIGD1, Q6UXZ0]

>  <assay endpoint>
pKd

>  <assay result>
3.52

$$$$
>  <binder>
SSLQSLETSV [ATP2B4, P23634]

>  <assay endpoint>
pKd

>  <assay result>
4.2

$$$$

Look up pKd: SGSRPSATVV [HPV73-E6, Q82005]
3.62
